Several publications report pIC50 on Coagulation factor XI (Homo sapiens); those values are gathered here.
pIC50 is defined as minus the log10 of a concentration measured in mol/L.

// worked examples, pIC50 included
{"columns": ["molecule", "readout label", "test result"],
 "data": [
  ["CC(c1cnc(N2C[C@H]3C[C@H]3C2=O)c2c1OCO2)n1cc(NC(=O)c2cncc(-c3c(C(F)F)ccc(Cl)c3F)n2)cn1 (single isomer, unassigned)", "pIC50", 5.88],
  ["Cn1nnnc1-c1ccc(NC(=O)[C@@H]2CCC3CC(c4c(-n5cnnn5)ccc(Cl)c4F)=CC(=O)N32)cc1 (mixture of isomers)", "pIC50", 7.07],
  ["O=C(O)c1ccc(NC(=O)C(CC2CC2)c2ccc(-c3cc(Cl)ccc3OC(F)F)c[n+]2[O-])cc1 (single isomer, unassigned)", "pIC50", 8.12]
]}

Consider the record given below.
The recorded pIC50 for CO[C@@H](C)[C@@H](c1ccccc1)n1cc(C(=O)N2CCC[C@@]3(C2)OC(=O)Nc2ccc(Cl)c(F)c23)cn1 is 5.36
